So I've got a bunch of molecules here, and I need their EC50 values.
# tested target: ERα (Homo sapiens)
# Sequence (P03372 whole entry): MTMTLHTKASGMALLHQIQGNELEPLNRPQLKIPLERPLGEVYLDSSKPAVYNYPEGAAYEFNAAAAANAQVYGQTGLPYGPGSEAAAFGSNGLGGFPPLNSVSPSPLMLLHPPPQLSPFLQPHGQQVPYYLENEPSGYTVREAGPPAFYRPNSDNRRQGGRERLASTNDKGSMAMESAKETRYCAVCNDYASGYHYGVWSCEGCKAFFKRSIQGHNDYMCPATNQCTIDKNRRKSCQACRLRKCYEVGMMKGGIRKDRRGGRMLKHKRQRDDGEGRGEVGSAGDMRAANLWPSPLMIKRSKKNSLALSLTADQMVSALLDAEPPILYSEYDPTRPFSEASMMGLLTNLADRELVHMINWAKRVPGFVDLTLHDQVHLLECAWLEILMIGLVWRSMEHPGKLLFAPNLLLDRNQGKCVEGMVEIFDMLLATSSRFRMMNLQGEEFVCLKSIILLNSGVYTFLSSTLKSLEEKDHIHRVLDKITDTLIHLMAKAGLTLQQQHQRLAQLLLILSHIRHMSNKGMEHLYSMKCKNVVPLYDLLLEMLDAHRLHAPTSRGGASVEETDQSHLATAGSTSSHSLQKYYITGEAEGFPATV
# protocol summary: Transactivation assay in stably transfected MCF-7 cells (MVLN assay)
# Type: cell-based
# Parameters: MCF-7 cells endogenously expressing ERα; endogenous in cells; host or cells: MCF-7 stably transfected with vitellogenin-tk-luciferase reporter (MVLN)
# measurement conditions: luciferase reporter, Table 2, read-out: MVLN-Transactivation (EC50 in nM)

## Input For the molecule shown here, CC[C@]1(O)CCC2C3CCc4c(ccc5[nH]ncc45)C3CC[C@@]21C (some centres unmarked) [Example 6] , give the reported EC50.
## Output 130 nM

## Input For the molecule shown here, C=CC[C@]1(O)CCC2C3CCc4c(ccc5[nH]ncc45)C3CC[C@@]21C (some centres unmarked) [Example 7] , give the reported EC50.
## Output 82.6 nM

## Input For the molecule shown here, C[C@]1(O)CCC2C3CCc4c(ccc5[nH]ncc45)C3CC[C@@]21C (some centres unmarked) [Example 3] , give the reported EC50.
## Output 3.53 nM

## Input For the molecule shown here, C[C@]12CCC3c4ccc5[nH]ncc5c4CCC3C1CC[C@@]2(O)C(F)(F)C(F)(F)F (some centres unmarked) [Example 10] , give the reported EC50.
## Output 270 nM

## Input For the molecule shown here, C#C[C@]1(O)CCC2C3CCc4c(ccc5[nH]ncc45)C3CC[C@@]21C (some centres unmarked) [Example 4] , give the reported EC50.
## Output 1.01 nM

## Input For the molecule shown here, C[C@]12CCC3c4ccc5[nH]nnc5c4CCC3C1CCC2=O (some centres unmarked) [Example 11] , give the reported EC50.
## Output 308 nM

## Input For the molecule shown here, C=C[C@]1(O)CCC2C3CCc4c(ccc5[nH]ncc45)C3CC[C@@]21C (some centres unmarked) [Example 5] , give the reported EC50.
## Output 3.72 nM

## Input For the molecule shown here, C[C@]12CCC3c4ccc5[nH]ncc5c4CCC3C1CCC2=O (some centres unmarked) [Example 2] , give the reported EC50.
## Output 12.6 nM

## Input For the molecule shown here, CC#C[C@]1(O)CCC2C3CCc4c(ccc5[nH]ncc45)C3CC[C@@]21C (some centres unmarked) [Example 8] , give the reported EC50.
## Output 16.5 nM

## Input For the molecule shown here, C[C@]12CCC3c4ccc5[nH]ncc5c4CCC3C1CC[C@@]2(O)C(F)(F)F (some centres unmarked) [Example 9] , give the reported EC50.
## Output 77.3 nM

## Input For the molecule shown here, C[C@]12CCC3c4ccc5[nH]ncc5c4CCC3C1CC[C@@H]2O (some centres unmarked) [Example 1] , give the reported EC50.
## Output 1.41 nM

Source listed as patent US20110190246A1.
